This collection of values is drawn from ChEMBL document CHEMBL1125930.

Test: Partition ratio obtained from HPLC analysis.
Format: ADME
endpoint: k'

compound="CCCCCCCCCCCCCCC(=O)COC1=C(O)C(=O)OC1C(O)CO (configuration not stated)" endpoint=k' number=4.33
compound="CCCCCCCCCCC(=O)COC1=C(O)C(=O)OC1C(O)CO (configuration not stated)" endpoint=k' number=1.14

[I] CCCCCCCCCCCCCCOC1=C(O)C(=O)OC1C(O)CO (configuration not stated)
[II] CCCCCCCCCCCCOC1=C(O)C(=O)OC1C(O)CO (configuration not stated)
[ask] Dear colleague, could you let me know whether I or II has the lower recorded k'? Thanks. Indicate which entry you chose by stating its label.
[reply] II

[P] CCCCCCCCOC1=C(O)C(=O)OC1C(O)CO (configuration not stated)
[Q] CCCCCCCCCCCCC(=O)COC1=C(O)C(=O)OC1C(O)CO (configuration not stated)
[ask] Identify the item whose k' is the smaller number: P or Q I would appreciate it if you answered with the label of your choice.
[reply] P
